target: noradrenaline (NA) uptake, synaptosomes from rat hypothalamus (Rattus norvegicus); construct: Synaptosomes for use in obtaining in vitro uptake data were prepared from hypothalamus or striatum by gently homogenizing the tissue; test: In vitro synaptosomal uptake of [3H]-NA
Sequence (Q63380 1-617): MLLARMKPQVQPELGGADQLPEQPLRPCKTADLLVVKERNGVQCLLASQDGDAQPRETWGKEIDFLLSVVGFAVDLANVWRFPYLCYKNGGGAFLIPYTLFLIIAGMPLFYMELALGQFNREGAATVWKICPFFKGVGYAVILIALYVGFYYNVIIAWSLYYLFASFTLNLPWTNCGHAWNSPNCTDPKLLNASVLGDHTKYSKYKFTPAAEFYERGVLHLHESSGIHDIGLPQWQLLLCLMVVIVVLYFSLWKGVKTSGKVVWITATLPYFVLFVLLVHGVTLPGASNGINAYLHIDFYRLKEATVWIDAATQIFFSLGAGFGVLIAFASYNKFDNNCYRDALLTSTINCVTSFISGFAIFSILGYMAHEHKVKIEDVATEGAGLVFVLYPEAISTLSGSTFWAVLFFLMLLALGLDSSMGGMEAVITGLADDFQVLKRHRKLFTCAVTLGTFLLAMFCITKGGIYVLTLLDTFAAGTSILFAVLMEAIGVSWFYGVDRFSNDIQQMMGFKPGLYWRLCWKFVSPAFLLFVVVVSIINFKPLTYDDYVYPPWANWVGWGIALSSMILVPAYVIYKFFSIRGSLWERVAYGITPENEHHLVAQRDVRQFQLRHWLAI
Parameter: IC50 (µM)
Give a bare numeral; the unit µM is implied.

Task: Which IC50 reading was recorded for the compound C[C@@H]1NC(C)(C)CO[C@@]1(O)c1cccc(Cl)c1 ?
Result: 1.1

All figures here come from patent US20070142378A1.
